src = patent US6924300B2

For each entry below, report its melting point value.

Provide melting point values for the following items, in order.
1. Cc1oc(-c2ccccc2)nc1COc1ccc(CO/N=C(/CCCCC(=O)O)c2ccccc2)cc1
2. O=C(O)CC/C(=N\OCc1ccc(OCc2cn3c(-c4ccccc4)cccc3n2)cc1)c1ccccc1
3. Cc1oc(-c2ccccc2)nc1COc1ccc(CO/N=C(\C(=O)O)c2cccc(C(=O)c3ccccc3)c2)cc1
4. Cc1oc(-c2ccccc2)nc1COc1ccc(CO/N=C(\CCC(N)=O)c2ccccc2)cc1

Ans:
1. 101 to 102 °C
2. 160 to 161 °C
3. 185 to 186 °C (dec.)
4. 164 to 165 °C

Provide melting point values for the following items, in order.
1. Cc1oc(-c2ccccc2)nc1COc1ccc(CO/N=C(\CCC(=O)O)c2ccco2)cc1
2. CCOC(=O)/C(=N/OCc1ccc(OCc2nc(-c3ccccc3)oc2C)cc1)c1ccc(Br)cc1
3. COc1ccc(/C(=N/OCc2ccc(OCc3nc(-c4ccccc4)oc3C)cc2)C(=O)O)cc1

Ans:
["124 to 125 °C", "105 to 106 °C", "183 to 184 °C"]

* * *

For each entry below, report its melting point value.

The following compounds have reported results that may help.
INSERT INTO assay_data (compound, quantity_name, experimental_result) VALUES
  ('Cc1oc(-c2ccco2)nc1COc1ccc(CO/N=C(\CCCCC(=O)O)c2ccccc2)cc1 [Example 132]', 'melting point', '112 to 113 °C'),
  ('Cc1oc(-c2cccs2)nc1COc1ccc(CO/N=C(\CCCCCCC(=O)O)c2ccccc2)cc1 [Example 130]', 'melting point', '106 to 108 °C'),
  ('Cc1oc(-c2ccccc2)nc1COc1ccc(CO/N=C(\CCCC(=O)O)c2ccccc2)cc1 [Example 18]', 'melting point', '129 to 130 °C'),
  ('Cc1oc(-c2ccccc2)nc1COc1ccc(CO/N=C(/CCCCCCC(=O)O)c2ccc(Cl)cc2)cc1 [Example 124]', 'melting point', '54 to 57 °C'),
  ('COC(=O)CC/C(=N\OCc1ccc(OCc2nc(-c3ccccc3)oc2C)c(OC)c1)c1ccccc1 [Example 149]', 'melting point', '112 to 114 °C'),
  ('Cc1oc(-c2ccccc2)nc1COc1ccc(CO/N=C(\Cc2ccccc2)C(=O)O)cc1 [Example 6]', 'melting point', '143 to 144 °C (dec.)'),
  ('Cc1oc(-c2ccccc2)nc1COc1ccc(CO/N=C(\CCCCCC(=O)O)c2ccccc2)cc1 [Example 115]', 'melting point', '84 to 85 °C'),
  ('COc1cc(CO/N=C(\CCC(=O)O)c2ccccc2)cc(OC)c1OCc1nc(-c2ccccc2)oc1C [Example 146]', 'melting point', '89 to 90 °C');

Provide melting point values for the following items, in order.
1. Cc1oc(-c2cccs2)nc1COc1ccc(CO/N=C(\CCC(=O)O)c2ccccc2)cc1 [Example 97]
2. Cc1oc(-c2ccccc2)nc1COc1ccc(CO/N=C(\CCC(=O)O)c2ccccn2)cc1 [Example 64]
3. Cc1oc(-c2ccccc2)nc1COc1cccc(CO/N=C(\CCC(=O)O)c2ccccc2)c1 [Example 77]
4. Cc1oc(-c2ccccc2)nc1COc1ccc(CO/N=C(/C(=O)O)c2cccc(Oc3ccccc3)c2)cc1 [Example 14]
5. Cc1oc(-c2ccccc2)nc1COc1ccc(CO/N=C(/c2ccccc2)C(C)(C)C(=O)O)cc1 [Example 110]

Ans:
["142 to 143 °C", "116 to 117 °C", "108 to 109 °C", "55 to 65 °C", "142 to 143 °C (dec.)"]

Provide melting point values for the following items, in order.
1. CCCC/C(=N\OCc1ccc(OCc2nc(-c3ccccc3)oc2C)cc1)C(=O)O [Example 8]
2. CN(CCOc1ccc(CO/N=C(\C(=O)O)c2ccccc2)cc1)c1ccccn1 [Example 3]
3. Cc1oc(-c2ccccc2)nc1COc1ccc(CO/N=C(\CCCCC(N)=O)c2ccccc2)cc1 [Example 82]

Ans:
1. 112 to 114 °C
2. 93 to 94 °C
3. 95 to 96 °C

Provide melting point values for the following items, in order.
1. Cc1oc(-c2ccccc2)nc1COc1ccc(CON=C(CC(=O)O)c2ccccc2)cc1 [Example 53]
2. O=C(O)CC/C(=N\OCc1ccc(OCc2csc(-c3ccccc3)n2)cc1)c1ccccc1 [Example 108]
3. Cc1oc(-c2ccccc2)nc1COc1ccc(CO/N=C(\CCCCCCCC(=O)O)c2ccccc2)cc1 [Example 73]
4. Cc1oc(-c2ccccc2)nc1COc1ccc(CO/N=C(/C(=O)O)c2ccc(F)cc2)cc1 [Example 16]
5. Cc1oc(-c2ccccc2)nc1COc1ccc(CO/N=C(\CCC(=O)O)c2ccncc2)cc1 [Example 71]

Ans:
1. 107 to 108 °C
2. 104 to 105 °C
3. 67 to 68 °C
4. 150 to 151 °C (dec.)
5. 161 to 162 °C

Provide melting point values for the following items, in order.
1. COc1cc(CO/N=C(\CCC(=O)O)c2ccccc2)ccc1OCc1nc(-c2ccccc2)oc1C [Example 150]
2. Cc1oc(-c2ccccc2)nc1COc1ccc(CO/N=C(/CCC(=O)O)c2ccco2)cc1 [Example 68]
3. O=C(O)CC/C(=N\OCc1ccc(OCc2coc(-c3ccccc3)n2)cc1)c1ccccc1 [Example 102]
4. Cc1oc(-c2ccccc2)nc1COc1ccc(CO/N=C(\CCCCCCC(=O)O)c2ccc(Cl)cc2)cc1 [Example 123]
5. C/C(=N\OCc1ccc(OCc2nc(-c3ccccc3)oc2C)cc1)C(=O)O [Example 9]

Ans:
1: 134 to 135 °C; 2: 131 to 133 °C; 3: 144 to 145 °C; 4: 90 to 91 °C; 5: 147 to 148 °C
